B1: TRIM43 (parent)
chain: RAQMIRNEYRKLHPVLHKEEKQHL

# Variants of: B1
# TEST_DESCRIPTION: protein stability index of a GFP-peptide fusion (GPS, HEK-293T) (PSI 1-6); higher = more stable;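 note: lentivirally expressed fusions sorted by FACS into six bins by GFP to DsRed ratio, PSI derived from sequencing read proportions per bin multiplied by bin number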
# CONDITION_LABEL: c terminus: a fixed tail appended
RESULT_TYPE: protein stability index
Answer with the value's number alone.

# MUT, protein stability index
rows = [
    ("R6T", 3.89),
    ("L24C", 3.65),
    ("Y9T", 4.08),
    ("P14G", 3.11),
    ("M4T", 3.69),
    ("V15C", 3),
    ("L24T", 4.01),
    ("V15Y", 2.7),
    ("V15Q", 3.17),
    ("E20D", 3.38),
]

Summary for this variant, K18H : protein stability index is 3.59

Recorded result, L24I , protein stability index: 3.19
